# credit: paper PMC12416549

- assayed-target: T1, TNFR1 (Homo sapiens, UniProt P19438)
- T1 chain: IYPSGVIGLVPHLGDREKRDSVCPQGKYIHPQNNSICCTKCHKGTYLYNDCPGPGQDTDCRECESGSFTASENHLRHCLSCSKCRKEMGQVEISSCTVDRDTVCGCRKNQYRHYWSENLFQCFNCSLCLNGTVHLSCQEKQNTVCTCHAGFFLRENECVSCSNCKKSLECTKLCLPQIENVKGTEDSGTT
- assay-protocol: yeast display SC50
readout-type: apparent Kd (screen) (nM)

binder: Y22C (designed binder) MTLQELLREEALRRAEAEAFRCALELLAEKFPEQKEYLLDLAEEIESQIRSLSGVDVEDVRKFLDKEWAWVKELLAEHPAELAEVEAARAARLAELRAEVEAKVAA
apparent Kd (screen), nM: 0.446

a: T2M (designed binder) MMLQELLREEALRRAEAEAFRYALELLAEKFPEQKEYLLDLAEEIESQIRSLSGVDVEDVRKFLDKEWAWVKELLAEHPAELAEVEAARAARLAELRAEVEAKVAA
b: A105R (designed binder) MTLQELLREEALRRAEAEAFRYALELLAEKFPEQKEYLLDLAEEIESQIRSLSGVDVEDVRKFLDKEWAWVKELLAEHPAELAEVEAARAARLAELRAEVEAKVRA
Hi there, can you help? I need to know whether a or b has lower measured apparent Kd (screen). Kindly give the label for the entry you pick. a
(a: 0.49 nM, b: 0.718 nM)
